These entries and their values trace back to PubChem BioAssay AID1496.

# experimental_target: Runt-related transcription factor 1 (Homo sapiens) + Core-binding factor subunit beta (Homo sapiens) (UniProt Q01196+Q13951)
# Sequence (Q01196 whole entry, looked up): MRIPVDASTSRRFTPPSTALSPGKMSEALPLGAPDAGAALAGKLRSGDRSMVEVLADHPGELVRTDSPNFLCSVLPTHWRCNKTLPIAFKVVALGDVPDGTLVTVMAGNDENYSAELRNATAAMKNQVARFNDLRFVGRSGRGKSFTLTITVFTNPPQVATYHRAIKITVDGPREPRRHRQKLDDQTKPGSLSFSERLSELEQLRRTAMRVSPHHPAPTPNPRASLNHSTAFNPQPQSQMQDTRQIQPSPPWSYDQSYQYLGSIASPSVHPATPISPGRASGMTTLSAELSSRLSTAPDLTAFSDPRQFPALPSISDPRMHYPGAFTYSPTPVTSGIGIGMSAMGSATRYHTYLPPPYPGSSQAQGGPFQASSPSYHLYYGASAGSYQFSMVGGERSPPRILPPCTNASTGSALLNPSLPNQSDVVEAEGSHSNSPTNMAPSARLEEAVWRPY
# Sequence (Q13951 whole entry, looked up): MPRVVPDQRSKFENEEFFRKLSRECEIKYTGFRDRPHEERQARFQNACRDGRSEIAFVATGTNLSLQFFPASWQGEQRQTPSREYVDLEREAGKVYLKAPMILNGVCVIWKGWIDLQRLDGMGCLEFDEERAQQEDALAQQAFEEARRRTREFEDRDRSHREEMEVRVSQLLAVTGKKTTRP
# test: inhibitors of RUNX1 Runt–CBFb binding, primary screen, biochemical, FRET, Cerulean-Runt, Venus-CBFb, uHTS (AID 1496);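 note: 0% = DMSO wells and 100% = excess unlabeled CBFb competitor control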
# condition_summary: Cerulean-Runt/Venus-CBFb FRET ratio 530/480, 1 h; at 20 µM; hits give high values
The campaign covered roughly 220,000 compounds. About 990 (0.45%) were called active. Many of the other results were omitted from the sample, so actives are more common in it than they were.
Each entry below carries its reported inhibition.

The recorded inhibition for "COc1cccc2c(=O)n(CC(=O)N3CCCCCC3)ccc12" is 0.5% (inactive)

inhibition reading for "CCCN1C2=C(C(=O)CCC2)C(c2ccc(O)c(Br)c2)C2=C1CCCC2=O" : 53.1% (active)

Input "CC(C)(C)OC(=O)c1c(N)n(CCCN2CCCC2=O)c2nc3ccccc3nc12" . Output inhibition: 68.7% (active)

inhibition reported for this compound COCC(C)OC(=O)c1c(N)n(CCCN2CCOCC2)c2nc3ccccc3nc12 (centres undefined) : 67.9% (active)

// sample "CCOc1ccc(C(=O)NCCCN2CCCC2=O)cc1" , its inhibition was 1% (inactive)

Next:
The measured inhibition associated with O=[N+]([O-])c1ccc2c(c1)C(O)n1nc(-c3ccccc3)nc1S2 (centres undefined) reads -0.7% (inactive)

Just so you know, measured inhibition for "CC(C)Cn1c(CCC(=O)O)ccc1-c1cccs1" came out at 65.6% (active)

Consider COc1ccc(C(=O)C2CCCN(C(=O)c3cnsn3)C2)c(C)c1 (centres undefined) . Its measured inhibition is -0.7% (inactive)

// "O=C(O)c1ccccc1OCc1ccccc1Cl" : inhibition value = 2.6% (inactive)

Lab book: inhibition of "COCCCn1c(CCC(=O)O)ccc1-c1ccc(F)cc1" noted as 3.3% (inactive)

What the record says about O=C(NC1CCCCC1)C1c2ccccc2C(=O)N1Cc1ccco1 (centres undefined) : inhibition is 1.8% (inactive)

Short answer for "COc1ccc(/C=N/NS(=O)(=O)c2ccc(NC(C)=O)cc2)cc1" : inhibition was 0.8% (inactive)

Data point: N#CC1=C(N)N(c2ccccc2)C2=C(C(=O)CCC2)C1c1ccccc1 (centres undefined) ; inhibition = 6.6% (inactive)

// recorded inhibition for CCCCN(CCCC)CC(O)Cn1c2ccccc2c(=O)c2ccccc21 (centres undefined) : 80.3% (active)

* * *

Here, each record is paired with measured inhibition data.
# experimental_target: Runt-related transcription factor 1 (Homo sapiens) + Core-binding factor subunit beta (Homo sapiens) (UniProt Q01196+Q13951)
# test: inhibitors of RUNX1 Runt–CBFb binding, primary screen, biochemical, FRET, Cerulean-Runt, Venus-CBFb, uHTS (AID 1496);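 note: 0% = DMSO wells and 100% = excess unlabeled CBFb competitor control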
# condition_summary: Cerulean-Runt/Venus-CBFb FRET ratio 530/480, 1 h; at 20 µM; hits give high values
In all, about 220,000 compounds went through this assay and about 990 (0.45%) were called active. This excerpt belongs to a sample that is enriched for actives.
State the answer as a number, implicitly in %.

The recorded inhibition for "Cc1cc(Nc2ccc(Cl)cc2)nc(N2CCOCC2)n1" is 0.3

Notebook: "COc1cccc2sc(Nc3nc(C)c(C(C)=O)s3)nc12" , inhibition read as 66.3

Lookup result for COc1c(O)ccc2c1CN1CCc3cc4c(cc3C1C2)OCO4 (stereo not drawn) ; measured inhibition: 66.6

// inhibition lookup, compound = N#CC1=C(N)OC2=C(C(=O)CCC2)C1C1CC=CCC1 (stereo not drawn) , result: -0.5

Kindly note the recorded inhibition for "CC1CCN(c2c(NCc3ccc(C(=O)NCc4ccccc4)cc3)c(=O)c2=O)CC1" , which is 0.6

The compound "CCc1nc(NCCO)c(C#N)c2c1CCCC2" showed inhibition equal to -0.2

***
The compound identified as "NNC(=O)c1oc2nc(-c3ccccc3)cc(-c3ccco3)c2c1N" registered its inhibition at -57.1

For "O=C(NNS(=O)(=O)c1ccccc1)c1cnn(-c2ccc(Cl)cc2)c1C(F)(F)F" the compound record lists inhibition as 1.6

* * *

# experimental_target: Runt-related transcription factor 1 (Homo sapiens) + Core-binding factor subunit beta (Homo sapiens) (UniProt Q01196+Q13951)
# test: inhibitors of RUNX1 Runt–CBFb binding, primary screen, biochemical, FRET, Cerulean-Runt, Venus-CBFb, uHTS (AID 1496);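 note: 0% = DMSO wells and 100% = excess unlabeled CBFb competitor control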
# condition_summary: Cerulean-Runt/Venus-CBFb FRET ratio 530/480, 1 h; at 20 µM; hits give high values
In all, about 220,000 compounds went through this assay and about 990 (0.45%) were called active. This is one part of a sample in which actives are shown more often than they occur.
measured_quantity: inhibition (%)
Quick note: give the figure in %, leave out the unit.

Consider COc1ccc(C2/C=C\CN(CC(C)C)CC(=O)N2Cc2ccc(F)cc2)cc1 (stereo unspecified) . Its measured inhibition is 0

For record "Fc1cc(F)c2nc(Nc3nc4c(F)cccc4s3)sc2c1" the listed inhibition is 0.3

The value of inhibition measured for the compound "Cc1ccc2c(CSc3nncs3)cc(=O)oc2c1" turned out to be 3.7

inhibition in this record for Cc1ccc(S(=O)(=O)N(C)C)cc1NC(=O)COC(=O)C1COc2ccccc2O1 (stereo unspecified) : -0.2

* * *

# experimental_target: Runt-related transcription factor 1 (Homo sapiens) + Core-binding factor subunit beta (Homo sapiens) (UniProt Q01196+Q13951)
# test: inhibitors of RUNX1 Runt–CBFb binding, primary screen, biochemical, FRET, Cerulean-Runt, Venus-CBFb, uHTS (AID 1496);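 note: 0% = DMSO wells and 100% = excess unlabeled CBFb competitor control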
# condition_summary: Cerulean-Runt/Venus-CBFb FRET ratio 530/480, 1 h; at 20 µM
In all, about 220,000 compounds went through this assay and about 990 (0.45%) were called active.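 The calls were made as follows: active = inhibition over about 50% at 20 µM in the single-dose screen (limit read from the data); inactive = the rest.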 The sample as a whole holds a higher share of actives than the screen did.
Return exactly one item of class 1 = active, class 0 = inactive

Qu. Each compound tested received a call. Report the one for "Cc1cc(C(=O)N2CCC(C(=O)O)CC2)c(C(F)(F)F)o1" .
Ans. class 0

Qu. Called result for N#CC1=C(N)Oc2cc(O)ccc2C1C1CCCCC1 (stereo unspecified)
Ans. class 1

Qu. Given COCc1[nH]nc2c1C(C1C=CCCC1)C(C#N)=C(N)O2 (stereo unspecified) , state the outcome it received in this test.
Ans. class 0

Qu. Give the logged outcome of this assay for the following compound: "CCOC(=O)c1c(NC(=S)Nc2ccccc2C)sc2c1CCC2"
Ans. class 0

Qu. For "CC(C)Cn1c(N)c(C(=O)NCc2cccs2)c2nc3ccccc3nc21" , what call appears in the results of this test?
Ans. class 0

Qu. Name the outcome recorded for "CCOc1ccc(/C=N/NC(=O)CSc2ccccn2)cc1O" in the assay.
Ans. class 0

Qu. Please let me know the test result on file for "CCCNC(=O)c1c(N)n(-c2ccc(S(N)(=O)=O)cc2)c2nc3ccccc3nc12" .
Ans. class 0

Qu. Could you check what this test reported for "O=C(NCc1ccco1)c1cccn2c(=O)c3c4c(sc3nc12)CCCC4" ?
Ans. class 0

***
Qu. In this assay, the call recorded for "CN(C)CCCn1c(N)c(C#N)c2nc(C#N)c(C#N)nc21" was what?
Ans. class 0

Qu. Which outcome was assigned to "CCOC(=O)c1c(NC(=O)NC(C)(C)C)sc2c1CCN(C)C2" in this test?
Ans. class 0

Qu. Please let me know the test result on file for "N#Cc1c(N)n(CCOC(=O)c2ccc(Cl)cc2)c2nc3ccccc3nc12" .
Ans. class 1

* * *

# experimental_target: Runt-related transcription factor 1 (Homo sapiens) + Core-binding factor subunit beta (Homo sapiens) (UniProt Q01196+Q13951)
# test: inhibitors of RUNX1 Runt–CBFb binding, primary screen, biochemical, FRET, Cerulean-Runt, Venus-CBFb, uHTS (AID 1496);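 note: 0% = DMSO wells and 100% = excess unlabeled CBFb competitor control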
# condition_summary: Cerulean-Runt/Venus-CBFb FRET ratio 530/480, 1 h; at 20 µM
The campaign covered roughly 220,000 compounds. About 990 (0.45%) were called active.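 How the source made its calls: active means inhibition over about 50% at 20 µM in the single-dose screen (limit read from the data); inactive means the rest.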 The list comes from a sample in which actives are over-represented; it also holds close analogues and randomly drawn compounds.
Field 'call' accepts active, inactive

Qu. Would you mind telling me which call this test gave "O=C(CCN1c2ccccc2Sc2ccccc21)Nc1ccccc1" ?
Ans. inactive

Others:
Qu. Recorded test call requested for "Cc1cccc(N2C(=O)c3cccnc3C2=O)c1"
Ans. inactive

Qu. // return assay outcome for COc1ccc(OC(C)C(=O)NCCc2nc3ccccc3[nH]2)cc1 (stereo unspecified)
Ans. inactive

Qu. For "NC(=O)COc1ccc2c3c(c(=O)oc2c1)CCCCC3" , which call appears in the assay record?
Ans. inactive

Qu. Check the results log: what was the call for "COC(=O)Cc1c(C)c2ccc(OCC(=O)NCc3ccc4c(c3)OCO4)cc2oc1=O" ?
Ans. inactive

Qu. Hi team, can someone confirm the assay call for Oc1c(Br)cc(/C=N/NC(=S)NCC2CCCO2)cc1Br (stereo unspecified) ?
Ans. inactive
